target: human emopamil binding protein and human 7-dehydrocholesterol reductase co-expressing cells (hEBP-DHCR7 membrane) (Homo sapiens (Human), UniProt Q15125)
Sequence (Q15125 whole entry): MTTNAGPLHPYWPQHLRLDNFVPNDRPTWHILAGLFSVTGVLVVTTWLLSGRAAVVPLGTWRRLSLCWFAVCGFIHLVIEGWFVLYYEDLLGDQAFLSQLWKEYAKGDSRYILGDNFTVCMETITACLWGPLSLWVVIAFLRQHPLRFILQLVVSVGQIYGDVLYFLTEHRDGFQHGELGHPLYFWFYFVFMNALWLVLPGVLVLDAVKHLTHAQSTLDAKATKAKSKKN
Our labelling divides records by Ki into ranges: class 1 (below 40 nM), class 2 (40 nM to below 70 nM), class 3 (70 nM or more)

Any idea which band O=S1(=O)CC2(CCN([C@H]3CCCN(c4ccc(C(F)(F)F)nc4)C3)C2)C1 (single isomer, unassigned) [66B*] is in?
class 2

Note: place this compound into its band. Item: CC(C)n1nc(-c2ccc(C(F)(F)F)cc2)nc1[C@@H]1CC[C@@H](N2CCC3(C2)CS(=O)(=O)C3)C1 (single isomer, unassigned) [53D*]
class 3

Tag the class for O=S1(=O)CC2(CCN([C@H]3CC[C@@H](c4cc(C(F)(F)F)nn4C4CC4)CC3)CC2)C1 [Compound 40A]
class 2

Band assignment needed for Cn1nc(C(F)(F)F)cc1[C@H]1CC[C@@H](N2CCC3(C2)CS(=O)(=O)C3)CC1 please.
class 2

Hi, small favor: classify CC(C)n1cc(C(F)(F)F)nc1[C@@H]1CC[C@@H](N2CCC3(C2)CS(=O)(=O)C3)C1 (single isomer, unassigned) [20B*] by its Ki when you get a moment.
class 3

Exercise: read the entry O=S1(=O)CC2(CCN([C@H]3CC[C@H](c4ncc(C(F)(F)F)cc4F)CC3)CC2)C1 [Compound 80A] and state which class it falls under.
class 2

Category of CC(C)(C)n1nc(C(F)(F)F)cc1[C@H]1CC[C@H](N2CCC3(C2)CS(=O)(=O)C3)CC1 :
class 1

Which of the defined bands does the recorded Ki of CC(C)n1nc(-c2cncc(OC(F)F)c2)cc1[C@H]1CC[C@H](N2CCC3(C2)CS(=O)(=O)C3)CC1 [Compound 33A] sit within?
class 1

Class for O=S1(=O)CC2(CCN([C@@H]3CCCN(c4ccc(C(F)(F)F)cc4)C3)CC2)C1 (single isomer, unassigned) [55A*] ?
class 1

Please let me know in which category the item O=S1(=O)CC2(CCN([C@H]3CC[C@H](c4cnc(C(F)(F)F)nc4)CC3)C2)C1 [Compound 94A] belongs.
class 3

Category of CC(C)n1nc(-c2cncc(C(F)(F)F)c2)cc1[C@@H]1CC[C@@H](N2CCC3(C2)CS(=O)(=O)C3)C1 (single isomer, unassigned) [13C*] :
class 1

Hi there! Could you help me figure out the category for O=S1(=O)CC2(CCN([C@H]3CC[C@H](c4cccc(C(F)(F)F)n4)CC3)C2)C1 [Compound 62B] please?
class 1

Which class is correct for the following compound? CC(C)[C@@H]1C[C@H](N2CCC3(C2)CS(=O)(=O)C3)CCN1c1ccc(C(F)(F)F)nc1 (stereo in doubt) [82D*]
class 3

---

molecular target: human emopamil binding protein and human 7-dehydrocholesterol reductase co-expressing cells (hEBP-DHCR7 membrane) (Homo sapiens (Human), UniProt Q15125)
measured_quantity: pKi
pKi here: minus log base 10 of the concentration, concentration in moles per litre.

Reported pKi, compound O=S1(=O)CC2(CCN([C@H]3CC[C@@H](c4ccc(C(F)(F)F)cc4)C3)C2)C1 [Compound 1A] : ____
7.83

Which pKi value belongs to O=S1(=O)CCC2(CCN([C@H]3CC[C@@H](c4ccc(C(F)(F)F)nc4)CC3)C2)CC1 [Compound 95B] ?
6.77

Query: pKi; subject: O=S1(=O)CC[C@@]2(CCCN([C@H]3CC[C@@H](c4cc(C(F)(F)F)nn4C4CC4)CC3)C2)C1 (single isomer, unassigned) [69A*]
7.62

Requested field: pKi. Item: O=S1(=O)CC2(CCN([C@H]3CC[C@H](c4cc(C(F)(F)F)nn4C4CCC4)CC3)C2)C1 [Compound 23B]
7.92

// lookup pKi for Cc1nc(C(F)(F)F)ccc1N1CCC(N2CCC3(C2)CS(=O)(=O)C3)CC1 [Compound 29]
6.64

State the recorded pKi for this entry: O=S1(=O)CC2(CCN([C@@H]3CCCN(c4ccc(C(F)(F)F)cc4)C3)C2)C1 (single isomer, unassigned) [22A*]
7.85

Which pKi is reported for this compound? O=S1(=O)CC2(CCN(C3CCN(c4ncc(C(F)(F)F)cc4C4CC4)CC3)C2)C1 [Compound 44]
8.05

These data points were gathered from patent US20240398781A1.
